target: FGFR4-WT (Homo sapiens (Human), UniProt P22455); assay: Omnia assay for potency assessment against FGFR4 enzyme; format: biochemical; conditions: method a: [FGFR4-WT]=10 nM (Invitrogen), [ATP]=300 uM, [Y10-Sox]=10 uM
Sequence (P22455 22-802): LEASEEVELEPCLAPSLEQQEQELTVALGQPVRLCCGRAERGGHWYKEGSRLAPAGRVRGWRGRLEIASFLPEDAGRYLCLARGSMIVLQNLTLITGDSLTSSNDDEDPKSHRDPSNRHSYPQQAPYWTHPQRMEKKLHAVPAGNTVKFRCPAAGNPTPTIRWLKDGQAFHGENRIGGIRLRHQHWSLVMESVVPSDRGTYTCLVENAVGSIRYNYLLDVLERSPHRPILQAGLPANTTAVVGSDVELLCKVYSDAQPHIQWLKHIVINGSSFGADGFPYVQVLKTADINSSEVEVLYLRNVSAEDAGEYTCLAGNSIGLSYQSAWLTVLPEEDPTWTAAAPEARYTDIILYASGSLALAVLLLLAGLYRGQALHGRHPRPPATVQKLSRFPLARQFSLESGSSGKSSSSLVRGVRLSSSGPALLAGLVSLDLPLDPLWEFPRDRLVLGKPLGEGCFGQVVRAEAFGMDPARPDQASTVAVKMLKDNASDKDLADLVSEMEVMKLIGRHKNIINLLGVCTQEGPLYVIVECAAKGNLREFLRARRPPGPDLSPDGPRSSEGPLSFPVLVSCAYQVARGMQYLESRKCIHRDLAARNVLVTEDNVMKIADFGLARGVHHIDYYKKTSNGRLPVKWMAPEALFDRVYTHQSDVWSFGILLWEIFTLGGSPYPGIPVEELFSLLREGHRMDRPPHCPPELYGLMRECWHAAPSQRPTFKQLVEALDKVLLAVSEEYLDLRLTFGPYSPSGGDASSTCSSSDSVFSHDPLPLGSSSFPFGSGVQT
pIC50: −log10 of the molar value.
property: pIC50

Quick one: pIC50 for C=CC(=O)Nc1nn(C)cc1Nc1ncc2c(n1)N(C)C(=O)N(c1c(Cl)c(OC)cc(OC)c1Cl)C2 [Compound I-117] ?
> 7.00

Same for C=CC(=O)N(C)c1ccccc1Nc1ncc2c(n1)N(Cc1ccccc1)C(=O)N(c1c(Cl)c(OC)cc(OC)c1Cl)C2 [Compound I-37]
6.30 to 7.00

Same for C=CC(=O)NC1CCCCC1Nc1ncc2c(n1)N(Cc1ccnc(N)c1)C(=O)N(c1c(Cl)c(OC)cc(OC)c1Cl)C2 (stereo not shown) [Compound I-133]
> 7.00

Same for C=CC(=O)N[C@H]1CCCC[C@H]1Nc1ncc2c(n1)N(Cc1ccn(C)n1)C(=O)N(c1c(Cl)c(OC)cc(OC)c1Cl)C2 [Compound I-147]
> 7.00

====

target: FGFR4-WT (Homo sapiens (Human), UniProt P22455); test: Omnia assay for potency assessment against FGFR4 enzyme; format: biochemical; settings: method a: [FGFR4-WT]=10 nM (Invitrogen), [ATP]=300 uM, [Y10-Sox]=10 uM
pIC50: −log10 of the molar value.
Please respond with reported pIC50 for every item in the list.

Tell me reported pIC50 for C=CC(=O)NC1CN(c2ccncn2)CC1Nc1ncc2c(n1)N(C)C(=O)N(c1c(Cl)c(OC)cc(OC)c1Cl)C2 (centres unmarked) , tested with FGFR4-WT (Homo sapiens (Human), UniProt P22455).
> 7.00

Same for `C=CC(=O)Nc1cc(N2CCCCC2)ccc1Nc1ncc2c(n1)N(C)C(=O)N(c1cc(OC)cc(OC)c1)C2`
> 7.00

Same for C=CC(=O)NC1CCCCC1Nc1ncc2c(n1)N(Cc1ccn(C)c(=O)c1)C(=O)N(c1c(Cl)c(OC)cc(OC)c1Cl)C2 (centres unmarked)
> 7.00

Same for C=CC(=O)NC1COCC1Nc1ncc2c(n1)N(C)C(=O)N(c1cc(C(=O)Nc3cccc(C(C)(C)C#N)c3)ccc1Cl)C2 (centres unmarked)
6.30 to 7.00

Same for C=CC(=O)NC1CCCCC1Nc1ncc2c(n1)NC(=O)N(c1c(Cl)c(OC)cc(OC)c1Cl)C2 (racemic)
6.30 to 7.00

Same for `C=CC(=O)Nc1cc(C(=O)NC2CCN(C)CC2)ccc1Nc1ncc2c(n1)N(C)C(=O)N(c1c(Cl)c(OC)cc(OC)c1Cl)C2`
> 7.00

Same for `C=CC(=O)Nc1ccc(-c2nccs2)cc1Nc1ncc2c(n1)N(C)C(=O)N(c1cc(OC)cc(OC)c1)C2`
> 7.00

Same for `C=CC(=O)Nc1ccccc1Nc1ncc2c(n1)N(Cc1ccc(F)c(N)c1)C(=O)N(c1c(Cl)c(OC)cc(OC)c1Cl)C2`
> 7.00

Same for `C=CC(=O)Nc1ccccc1Nc1ncc2c(n1)N(C)C(=O)N(C1CC1)C2`
< 6.00

Same for `C=CC(=O)Nc1cc(-c2nnn(C)n2)ccc1Nc1ncc2c(n1)N(C)C(=O)N(c1c(Cl)c(OC)cc(OC)c1Cl)C2`
> 7.00

Same for `C=CC(=O)Nc1ccccc1Nc1ncc2c(n1)N(C)C(=O)N(c1cc(OC)cc(OC)c1Cl)C2`
> 7.00

Same for `C=CC(=O)Nc1ccccc1Nc1ncc2c(n1)N(Cc1cn[nH]c1)C(=O)N(c1c(Cl)c(OC)cc(OC)c1Cl)C2`
> 7.00

Same for `C=CC(=O)N[C@H]1CCCC[C@H]1Nc1ncc2c(n1)N(C)C(=O)N(c1c(F)c(OC)cc(OC)c1F)C2`
> 7.00

Same for C=CC(=O)Nc1ccccc1Nc1ncc2c(n1)N(C1CCCN(C(=O)OC(C)(C)C)C1)C(=O)N(c1cc(OC)cc(OC)c1)C2 (centres unmarked)
> 7.00

====

Target: FGFR4-WT (Homo sapiens (Human), UniProt P22455)
Experiment: Omnia assay for potency assessment against FGFR4 enzyme
Assay type: biochemical
Conditions: method a: [FGFR4-WT]=10 nM (Invitrogen), [ATP]=300 uM, [Y10-Sox]=10 uM
Protocol: A 10× stock solution of FGFR4-WT (PR4380C), (from Invitrogen, Carlsbad, Calif.) corresponding to method a in Table 7, was prepared as described below. Alternatively, a 10× stock solution of FGFR4-WT (F01-11G), (SignalChem, Richmond, BC) corresponding to method b in Table 7, was prepared as described below. […] The reactions were monitored every 71 seconds for 240 minutes at λex360/λem485 in a Synergy plate reader from BioTek (Winooski, Vt.).
pIC50: −log10 of the molar value.
property: pIC50

Quick one: pIC50 for C=CC(=O)NC1COCC1Nc1ncc2c(n1)N(C)C(=O)N(c1c(Cl)c(OC)c(OC)c(OC)c1Cl)C2 (stereo not shown) ?
6.00 to 6.30

Same for `C=CC(=O)Nc1cc(N2CCN(C(=O)CCC(=O)O)CC2)ccc1Nc1ncc2c(n1)N(C)C(=O)N(c1c(Cl)c(OC)cc(OC)c1Cl)C2`
> 7.00

Same for `C=CC(=O)N[C@@H]1CCCC[C@@H]1Nc1ncc2c(n1)N(Cc1ccccc1)C(=O)N(c1c(Cl)c(OC)cc(OC)c1Cl)C2`
< 6.00

Same for `C=CC(=O)Nc1ccccc1Oc1ncc2c(n1)N(C)C(=O)N(c1c(Cl)c(OC)cc(OC)c1Cl)C2`
> 7.00

====

target: FGFR4-WT (Homo sapiens (Human)); assay: Omnia assay for potency assessment against FGFR4 enzyme; assay type: biochemical; settings: method b: [FGFR4-WT]=2.5 nM (SignalChem), [ATP]=250 uM, [Y10-Sox]=10 uM
property: IC50

Quick one: IC50 for `C=CC(=O)Nc1ccccc1Nc1ncc2c(n1)N(Cc1ccc(Cl)c(OC)c1)C(=O)N(c1c(Cl)c(OC)cc(OC)c1Cl)C2` ?
< 100 nM

Same for `C=CC(=O)Nc1ccccc1Nc1ncc2c(n1)N(Cc1cccc(F)c1)C(=O)N(c1c(Cl)c(OC)cc(OC)c1Cl)C2`
101 to 500 nM

Same for `C=CC(=O)NCc1ccccc1Nc1ncc2c(n1)N(C)C(=O)N(c1c(Cl)c(OC)cc(OC)c1Cl)C2`
< 100 nM

Same for `C=CC(=O)Nc1cc(N2CCN(CC)CC2)ccc1Nc1ncc2c(n1)N(C)C(=O)N(c1cc(OC)cc(OC)c1)C2`
< 100 nM

Same for `C=CC(=O)Nc1ccccc1Nc1ncc2c(n1)N(Cc1cccc(N)c1)C(=O)N(c1c(Cl)c(OC)cc(OC)c1Cl)C2`
< 100 nM

Same for `C=CC(=O)Nc1ccccc1Nc1ncc2c(n1)N(Cc1ccccc1)C(=O)N(c1c(Cl)c(OC)cc(OC)c1Cl)C2`
< 100 nM

Same for `CCC(=O)Nc1cccc(CN2C(=O)N(c3c(Cl)c(OC)cc(OC)c3Cl)Cc3cnc(Nc4ccccc4NC(=O)CC)nc32)c1`
101 to 500 nM

Same for `C=CC(=O)Nc1cc(Cl)c(Cl)cc1Nc1ncc2c(n1)N(Cc1ccccc1)C(=O)N(c1c(Cl)c(OC)cc(OC)c1Cl)C2`
501 to 999 nM

Same for `CCC(=O)Nc1ccccc1Nc1ncc2c(n1)N(Cc1ccccc1)C(=O)N(c1c(Cl)c(OC)cc(OC)c1Cl)C2`
101 to 500 nM

Same for C=CC(=O)Nc1cc(C(F)(F)F)ccc1Nc1ncc2c(n1)N(Cc1ccccc1)C(=O)N(c1c(Cl)c(OC)cc(OC)c1Cl)C2 [Compound I-10]
> 1000 nM

Same for `C=CC(=O)Nc1ccccc1Nc1ncc2c(n1)N(C)C(=O)N(c1c(Cl)c(OC)cc(OC)c1Cl)C2`
< 100 nM

Same for C=CC(=O)Nc1cc(C(F)(F)F)ccc1Nc1ncc2c(n1)N(Cc1ccccc1)C(=O)N(c1c(Cl)c(OC)cc(OC)c1Cl)C2 [Compound I-6]
501 to 999 nM

Same for `C=CC(=O)Nc1ccccc1Nc1ncc2c(n1)N(Cc1ccc(F)cc1)C(=O)N(c1c(Cl)c(OC)cc(OC)c1Cl)C2`
101 to 500 nM

====

target: pFGFR4 in Huh7 cells (Homo sapiens (Human), UniProt P22455); experiment: FGFR4 signaling, Meso Scale assay (MSD), Method B, Huh7
property: EC50

Quick one: EC50 for C=CC(=O)N[C@@H]1COC[C@@H]1Nc1ncc2c(n1)N(C)C(=O)N(c1c(Cl)c(OC)cc(OC)c1Cl)C2 [Compound I-185] ?
> 1 µM

Same for C=CC(=O)NC1CS(=O)(=O)CC1Nc1ncc2c(n1)N(C)C(=O)N(c1c(Cl)c(OC)cc(OC)c1Cl)C2 (stereo not drawn) [Compound I-200]
0.101 to 0.5 µM

Same for C=CC(=O)Nc1ccccc1Nc1ncc2c(n1)N(CC#N)C(=O)N(c1cc(OC)cc(OC)c1)C2 [Compound I-48]
0.101 to 0.5 µM

Same for C=CC(=O)N[C@H]1CCCC[C@H]1Nc1ncc2c(n1)N(C)C(=O)N(c1c(F)c(OC)cc(OC)c1Br)C2 [Compound I-228]
0.101 to 0.5 µM

Same for C=CC(=O)NC1CCCCC1Nc1ncc2c(n1)N(Cc1ccn(C)c(=O)c1)C(=O)N(c1c(Cl)c(OC)cc(OC)c1Cl)C2 (stereo not drawn) [Compound I-132]
0.101 to 0.5 µM

Same for C=CC(=O)Nc1ccccc1Nc1ncc2c(n1)N(Cc1cccc(C(N)=O)c1)C(=O)N(c1cc(OC)cc(OC)c1)C2 [Compound I-97]
0.101 to 0.5 µM

Same for C=CC(=O)NC1COCC1Nc1ncc2c(n1)N(C)C(=O)N(c1c(Cl)c(OCC)cc(OCC)c1Cl)C2 (stereo not drawn) [Compound I-205]
0.101 to 0.5 µM

Same for C=CC(=O)NC1COCC1Nc1ncc2c(n1)N(C)C(=O)N(c1cc(OC)c(OC)c(OC)c1)C2 (stereo not drawn) [Compound I-207]
> 1 µM

Same for C=CC(=O)Nc1ccccc1Nc1ncc2c(n1)N(Cc1cccc(N)c1)C(=O)N(c1c(Cl)c(OC)cc(OC)c1Cl)C2 [Compound I-26]
< 0.1 µM

Same for C=CC(=O)N[C@H]1CCCC[C@H]1Nc1ncc2c(n1)N(C)C(=O)N(c1cc(OC)c(OC)c(OC)c1)C2 [Compound I-220]
> 1 µM

Same for C=CC(=O)Nc1ccccc1Nc1ncc2c(n1)N(CC1CC1)C(=O)N(c1cc(OC)cc(OC)c1Cl)C2 [Compound I-100]
< 0.1 µM

Same for C=CC(=O)N[C@H]1CCCC[C@H]1Nc1ncc2c(n1)N(C)C(=O)N(c1c(F)c(OC)cc(OC)c1F)C2 [Compound I-143]
0.101 to 0.5 µM

Same for C=CC(=O)Nc1ccccc1Nc1ncc2c(n1)N(Cc1ccc(F)cc1)C(=O)N(c1c(Cl)c(OC)cc(OC)c1Cl)C2 [Compound I-25]
0.101 to 0.5 µM

Same for C=CC(=O)Nc1ccccc1Nc1ncc2c(n1)N(Cc1cccnc1)C(=O)N(c1cc(OC)cc(OC)c1)C2 [Compound I-44]
< 0.1 µM

Same for C=CC(=O)NC1COCC1Nc1ncc2c(n1)N(Cc1cc[nH]n1)C(=O)N(c1c(Cl)c(OC)cc(OC)c1Cl)C2 (stereo not drawn) [Compound I-216]
0.101 to 0.5 µM

Same for C=CC(=O)NC1COCC1Nc1ncc2c(n1)N(Cc1cnn(C)c1)C(=O)N(c1c(Cl)c(OC)cc(OC)c1Cl)C2 (stereo not drawn) [Compound I-213]
< 0.1 µM

Same for C=CC(=O)Nc1cc(-c2nnn(C)n2)ccc1Nc1ncc2c(n1)N(C)C(=O)N(c1cc(OC)cc(OC)c1)C2 [Compound I-146]
0.101 to 0.5 µM

Same for C=CC(=O)Nc1ccccc1Nc1ncc2cc(-c3cc(OC)cc(OC)c3)c(N)nc2n1 [Compound I-155]
> 1 µM

Same for C=CC(=O)NC1CCCCC1Nc1ncc2c(n1)N(CC(F)F)C(=O)N(c1c(F)c(OC)cc(OC)c1F)C2 (stereo not drawn) [Compound I-115]
0.101 to 0.5 µM

Same for C=CC(=O)N(C)C1COCC1Nc1ncc2c(n1)N(C)C(=O)N(c1c(Cl)c(OC)cc(OC)c1Cl)C2 (stereo not drawn) [Compound I-218]
> 1 µM

Same for C=CC(=O)Nc1ccccc1Nc1ncc2c(n1)N(CCOC)C(=O)N(c1cc(OC)cc(OC)c1)C2 [Compound I-59]
0.101 to 0.5 µM

Same for C=CC(=O)NC1CN(C2CCN(C)CC2)CC1Nc1ncc2c(n1)N(C)C(=O)N(c1c(Cl)c(OC)cc(OC)c1Cl)C2 (racemic) [Compound I-154]
> 1 µM

Same for C=CC(=O)Nc1cc(N(C)CCOC)ccc1Nc1ncc2c(n1)N(Cc1ccccc1)C(=O)N(c1cc(OC)cc(OC)c1)C2 [Compound I-13]
0.101 to 0.5 µM

Same for C=CC(=O)NC1CN(c2ccncn2)CC1Nc1ncc2c(n1)N(C)C(=O)N(c1c(Cl)c(OC)cc(OC)c1Cl)C2 (stereo not drawn) [Compound I-201]
0.101 to 0.5 µM

Same for C=CC(=O)NC1CCCCC1Nc1ncc2c(n1)N(Cc1ccnc(N)c1)C(=O)N(c1c(Cl)c(OC)cc(OC)c1Cl)C2 (stereo not drawn) [Compound I-133]
< 0.1 µM

Same for C=CC(=O)Nc1cc(OC)ccc1Nc1ncc2cc(-c3c(Cl)c(OC)cc(OC)c3Cl)c(=O)n(C)c2n1 [Compound I-242]
< 0.1 µM

Same for C=CC(=O)NC1COCC1Nc1ncc2c(n1)N(CC1CC1)C(=O)N(c1c(Cl)c(OC)cc(OC)c1Cl)C2 (stereo not drawn) [Compound I-212]
< 0.1 µM
